# reported inhibition of growth; entries follow
# System: Ralstonia solanacearum
# experimental.protocol: Antibacterial activity against Ralstonia solanacearum assessed as growth inhibition at […] after 48 hrs by turbidimeter test
# Assay type: functional
# Set-up: dose or concentration left out as unconfirmed
# experimental.conditions: read-out: GI
Answer in %, number only, no unit symbol.

                                     smiles             parameter  result_value
0  Cc1cc(Cl)cc(C(=O)N/N=C\c2ccc(C(C)(C)C)cc2)c1NC(=O)c1cccnc1Cl  inhibition of growth          18.2
1  CC/C=N\NC(=O)c1cc(Cl)cc(C)c1NC(=O)c1cccnc1Cl  inhibition of growth             0
2  Cc1cc(Cl)cc(C(=O)N/N=C\c2ccc(F)cc2)c1NC(=O)c1cccnc1Cl  inhibition of growth           1.1
3  Cc1cc(Cl)cc(C(=O)N/N=C\N(C)C)c1NC(=O)c1cccnc1Cl  inhibition of growth          57.1

Find the recorded inhibition of growth belonging to COc1ccc(/C=N\NC(=O)c2cc(Cl)cc(C)c2NC(=O)c2cccnc2Cl)c(OC)c1 and report it.
0

Find the recorded inhibition of growth belonging to Cc1cc(Cl)cc(C(=O)N/N=C\c2cccc(C(F)(F)F)c2)c1NC(=O)c1cccnc1Cl and report it.
33.3

====

# Test system: Ralstonia solanacearum
# experimental.protocol: Antibacterial activity against Ralstonia solanacearum assessed as growth inhibition at […] after 48 hrs by turbidimeter test
# Assay type: functional
# Set-up: dose or concentration left out as unconfirmed
# experimental.conditions: read-out: GI
# reported inhibition of growth; entries follow
Answer in %, number only, no unit symbol.

Find the recorded inhibition of growth belonging to Cc1cc(Cl)cc(C(=O)N/N=C\c2ccccc2Cl)c1NC(=O)c1cccnc1Cl and report it.
0

Find the recorded inhibition of growth belonging to COc1ccc(OC)c(/C=N\NC(=O)c2cc(Cl)cc(C)c2NC(=O)c2cccnc2Cl)c1 and report it.
1.9

Find the recorded inhibition of growth belonging to COc1cccc(/C=N\NC(=O)c2cc(Cl)cc(C)c2NC(=O)c2cccnc2Cl)c1OC and report it.
0

Find the recorded inhibition of growth belonging to Cc1cc(Cl)cc(C(=O)N/N=C\c2c(Cl)cccc2Cl)c1NC(=O)c1cccnc1Cl and report it.
15.2

Find the recorded inhibition of growth belonging to Cc1cc(Cl)cc(C(=O)N/N=C\c2ccc(Cl)c(Cl)c2)c1NC(=O)c1cccnc1Cl and report it.
12.4
